assay-text: Antiproliferative activity against mouse KC-0122 cells assessed as inhibition of cell growth incubated for 72 hrs by MTT assay
Format: functional, cell-based
condition: KC-0122, 72 h
Threshold 2 µM. IC50 below it: yes. IC50 at it or above: no.

See these solved cases before continuing.
{"columns": ["compound-smiles", "assigned-class"],
 "data": [
  ["COc1ccc(NC(=O)CN)cc1Nc1nccc(-c2cn(C)c3ccccc23)n1", "no"],
  ["COc1cc(N(C)CCN(C)C)c(NC(=O)CCN)cc1Nc1nccc(-c2cn(C)c3ccccc23)n1", "yes"],
  ["COc1cc(N2CCC(N(C)C)CC2)c(NC(=O)CO)cc1Nc1nccc(-c2cn(C)c3ccccc23)n1", "yes"],
  ["CN(C)C1CCN(c2ccc(Nc3nccc(-c4cn(C)c5ccccc45)n3)cc2NS(C)(=O)=O)CC1", "yes"]
]}

Now examine the next entry.
Task: Please state whether IC50 is below 2 µM for COc1cc(OCCN(C)C)c(NC(=O)CN)cc1Nc1nccc(-c2cn(C)c3ccccc23)n1
Result: no

###

tested-on: Epidermal growth factor receptor (Homo sapiens, UniProt P00533, C797S/EX19DEL/T790M)
Sequence (P00533 whole entry, looked up, stated change not applied): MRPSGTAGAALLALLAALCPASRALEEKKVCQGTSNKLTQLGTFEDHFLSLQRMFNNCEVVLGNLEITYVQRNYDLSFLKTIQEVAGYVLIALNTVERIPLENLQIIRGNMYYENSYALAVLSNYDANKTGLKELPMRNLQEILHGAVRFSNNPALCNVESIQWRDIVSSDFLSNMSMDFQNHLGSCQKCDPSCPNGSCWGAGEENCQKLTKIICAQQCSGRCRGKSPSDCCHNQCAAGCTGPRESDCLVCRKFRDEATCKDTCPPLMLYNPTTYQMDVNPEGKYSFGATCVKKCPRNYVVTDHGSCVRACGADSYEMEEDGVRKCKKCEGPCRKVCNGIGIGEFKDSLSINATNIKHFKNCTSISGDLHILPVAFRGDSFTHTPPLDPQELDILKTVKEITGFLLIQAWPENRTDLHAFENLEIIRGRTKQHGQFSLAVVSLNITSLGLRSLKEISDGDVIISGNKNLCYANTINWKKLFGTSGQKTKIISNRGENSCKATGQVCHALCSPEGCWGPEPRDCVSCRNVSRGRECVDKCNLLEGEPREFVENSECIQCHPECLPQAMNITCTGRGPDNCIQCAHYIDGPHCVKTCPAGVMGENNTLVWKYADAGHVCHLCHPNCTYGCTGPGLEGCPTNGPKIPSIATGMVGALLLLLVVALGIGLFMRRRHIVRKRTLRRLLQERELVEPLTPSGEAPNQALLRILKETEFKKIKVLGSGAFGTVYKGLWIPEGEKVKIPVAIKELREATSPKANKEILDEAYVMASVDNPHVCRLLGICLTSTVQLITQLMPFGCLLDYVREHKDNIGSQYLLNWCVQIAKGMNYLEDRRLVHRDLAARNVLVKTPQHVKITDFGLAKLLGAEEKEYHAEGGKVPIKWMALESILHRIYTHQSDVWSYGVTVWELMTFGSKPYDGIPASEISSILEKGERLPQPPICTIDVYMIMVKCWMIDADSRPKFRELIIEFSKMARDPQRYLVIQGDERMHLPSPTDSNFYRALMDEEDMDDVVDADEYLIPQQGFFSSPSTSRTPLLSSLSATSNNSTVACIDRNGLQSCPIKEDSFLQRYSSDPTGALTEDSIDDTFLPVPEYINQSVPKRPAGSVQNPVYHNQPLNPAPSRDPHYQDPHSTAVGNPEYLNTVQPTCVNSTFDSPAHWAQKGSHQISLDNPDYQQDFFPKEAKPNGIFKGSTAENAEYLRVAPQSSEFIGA
assay-text: Inhibition of recombinant EGFR Del19/T790M/C797S mutant (unknown origin) in presence of ATP by TR-FRET assay
property-name: IC50 (nM)
// note: answer is a bare numeric in nM

Task: Lab note: need IC50 for CC(C)n1c2cc(Nc3ccnc(-c4cnn(S(=O)(=O)C5CC5)c4)n3)ncc2c2c(OCC(F)(F)F)cc(N3CCN(C)CC3)cc21 on Epidermal growth factor receptor (Homo sapiens, UniProt P00533, C797S/EX19DEL/T790M), anyone have it?
Result: 0.28

###

assay-text: Antiproliferative activity against mouse KC-0122 cells assessed as inhibition of cell growth incubated for 72 hrs by MTT assay
Assay type: functional, cell-based
condition: KC-0122, 72 h
The label is t for IC50 below 1000 nM and f for IC50 equal to or exceeding 1000 nM.

{"columns": ["compound-smiles", "assigned-class"],
 "data": [
  ["CC(=O)N1CCN(c2ccc(Nc3nccc(-c4cn(C)c5ccccc45)n3)cc2)CC1", "f"],
  ["CN(C)CCOc1ccc(Nc2nccc(-c3cn(C)c4ccccc34)n2)cc1", "f"]
]}

Task: Please determine if COc1cc2c(cc1Nc1nccc(-c3cn(C)c4ccccc34)n1)NC(=O)CCCCCN2CCN(C)C is below 1000 nM in terms of IC50.
Result: f

Task: Below 1000 nM on IC50? Entry CN1CCN(C2CCN(c3ccc(Nc4nccc(-c5cn(C)c6ccccc56)n4)cc3)CC2)CC1
Result: f

Task: API: query returns whether the compound falls strictly under 1000 nM in IC50. Query: CN(C)CCN(C)c1ccc(Nc2nccc(-c3cn(C)c4ccccc34)n2)cc1
Result: f

Task: Given the entry COc1cc(N(C)CCN(C)C)c(NC(=O)CO)cc1Nc1nccc(-c2cn(C)c3ccccc23)n1 , would its reported IC50 be below 1000 nM?
Result: f

Task: Decide: IC50 of CN(C)C1CCN(c2ccc(Nc3nccc(-n4cc(NC(=O)c5ccccc5)cn4)n3)cc2NS(C)(=O)=O)CC1 strictly below 1000 nM?
Result: t

Task: # strict comparison: is reported IC50 < 1000 nM? input = CN(C)CCN(c1ccc(Nc2nccc(-c3cn(C)c4ccccc34)n2)cc1)S(C)(=O)=O
Result: t

Task: Hello, I'm reviewing records and need to know if IC50 of COc1cc(N2CCC(N3CCN(C)CC3)CC2)ccc1Nc1ncc(Cl)c(Nc2ccccc2P(C)(C)=O)n1 is below 1000 nM. Could you check?
Result: t
